Experiment: Intravenous MDZ (1.0 mg i.v.) plasma pharmacokinetics (MDZ and 1′-OH-MDZ) alone and after repeated inhibitor administration
Details: human, in vivo, iv, 1 mg, MDZ Cmax, MDZ alone, MDZ 1 mg i.v.; APZ arm (Table S1); geometric mean (90% CI)
observable: Cmax
Please report the result as a number followed by the unit.

Sample Cc1ncc2n1-c1ccc(Cl)cc1C(c1ccccc1F)=NC2 [MDZ, midazolam] ; Cmax observed: 0.026 µg/mL

====

Experiment: Oral MDZ (1.5 mg p.o.) plasma pharmacokinetics (MDZ and 1′-OH-MDZ) alone and after repeated inhibitor administration
Conditions: human, in vivo, po, 1.5 mg, MDZ AUC0– (zero to infinity), MDZ alone, MDZ 1.5 mg p.o.; FKZ arm (Table S2); geometric mean (90% CI)
observable: AUC
Value and unit, in that order.

The compound identified as Cc1ncc2n1-c1ccc(Cl)cc1C(c1ccccc1F)=NC2 registered its AUC at 19.4 ng·h/mL
